ASSAY_NAME: Human hepatocyte clearance study
Assay type: in vitro ADME
CONDITION_PARAMETERS: pooled cryopreserved human hepatocytes (suspension); pooled human hepatocytes; read-out: Human In vitro T1/2
Could you mark each record satisfied if its half-life at 1 µM falls strictly under 6 h, and not satisfied if it equals or exceeds it?

Consider the following illustrative entries.
{"columns": ["COMPOUND", "CATEGORY_LABEL"],
 "data": [
  ["CCN(c1ccc(C2(C(=O)O)CCC2)cc1Nc1ccc(Cl)cn1)C1CCOCC1 [Compound 115]", "not satisfied"],
  ["CC(C)CN(CC(C)C)c1ccc(C2(C(=O)O)CCCC2)cc1Nc1ccccc1 [Compound 48]", "not satisfied"],
  ["CCN(c1ncc(C2(C(=O)O)CCC2)cc1Nc1ccc(Cl)cn1)C1CCOCC1 [Compound 123]", "not satisfied"],
  ["CC(C)N(CC1CC1)c1ncc(C2(C(=O)O)CCC2)cc1Nc1ccc(Cl)cn1 [Compound 111]", "satisfied"],
  ["CC(C)CN(CC(C)C)c1ccc(C2(C(=O)O)CCCC2)cc1NC(=O)Nc1ccc(F)cc1F [Compound 9]", "not satisfied"],
  ["CCN(c1ccc(C2(C(=O)O)CCC2)cc1Nc1ccc(C#N)cn1)C1CCOCC1 [Compound 118]", "not satisfied"],
  ["CC(C)CN(CC(C)C)c1ncc(C2(C(=O)O)CCC2)cc1Nc1ccc(C#N)cn1 [Compound 106]", "satisfied"]
]}

Is it true that half-life at 1 µM reported for CC(C)CN(CC(C)C)c1ccc(C(CC(=O)O)C(F)(F)F)cc1NC(=O)Nc1ccc(F)cc1F (centres unmarked) [Control 1, reference compound] is less than 6 h? satisfied

----------
Test system: kynurenine production in HeLa cells
ASSAY_NAME: Inhibition of kynurenine production in HeLa cells
Assay type: cell-based, human
CONDITION_PARAMETERS: Homo sapiens, HeLa, 48 h, HeLa cells, human IFN-γ 50 ng/mL, kynurenine read at 480 nm, read-out: IC50
Assign pIC50 to each entry below.
Give bare numbers, as −log10 of the molar value.

Examples with answers:
{"columns": ["COMPOUND", "STUDY_TARGET", "pIC50"],
 "data": [
  ["CCC(C(=O)O)c1ccc(N(CC(C)C)C2CCCCC2)c(NC(=O)Nc2cc(C)no2)c1 (stereo not shown) [Compound 63A]", "kynurenine production in HeLa cells", 8.60],
  ["CC(C)CN(c1ccc(CC(=O)O)cc1Nc1ccc(Cl)cc1)C1CCOCC1", "kynurenine production in HeLa cells", 8.74],
  ["CCN(c1ncc(C2(C(=O)O)CCC2)cc1Nc1ccc(Cl)cn1)C1CCOCC1", "kynurenine production in HeLa cells", 9.52],
  ["CC(C)CN(CC(C)C)c1ccc(C2(C(=O)O)CCC2)cc1Nc1ccc(Cl)cc1", "kynurenine production in HeLa cells", 9.40],
  ["CCC(C(=O)O)c1ccc(N(CC(C)C)C2CCOCC2)c(Nc2ccc(F)cc2F)c1 (stereo not shown)", "kynurenine production in HeLa cells", 8.41]
]}

Batch lookup, pIC50 per entry.
1. CCN(c1ccc(C2(C(=O)O)CCC2)cc1NC(=O)Nc1ccc(F)cc1F)C1CCOCC1
2. CC(C)CN(c1ncc(C2(C(=O)O)CCC2)cc1Nc1ccc(C#N)cc1)C1CCOCC1
3. O=C(Nc1ccc(F)cc1F)Nc1cc(C2(C(=O)O)CCCC2)ccc1N(CCC(F)(F)F)Cc1ccc(OC(F)(F)F)cc1
4. CC(C)CN(CC(C)C)c1ncc(C2(C(=O)O)CCC2)cc1Nc1ccc(Cl)cc1

1. 8.66
2. 9.52
3. 9.22
4. 9.40

Batch lookup, pIC50 per entry.
1. CC(C)CN(CC(C)C)c1ccc(C2(C(=O)O)CC(F)(F)C2)cc1NC(=O)Nc1ccc(F)cc1F
2. CC(C)CN(CC(C)C)c1ccc(OC(C)(C)C(=O)O)cc1NC(=O)Nc1cncnc1
3. CCOc1ncc(Nc2cc(C3(C(=O)O)CCC3)ccc2N(CC2CC2)C(C)C)cn1
4. CCN(c1ncc(C2(C(=O)O)CCC2)cc1Nc1ccc(C#N)cc1)C1CCOCC1
5. Cc1cc(NC(=O)Nc2cc([C@H]3C[C@H]3C(=O)O)ccc2N(CC(C)C)CC(C)C)on1 [Control 2, reference compound]

8.40
7.32
8.55
9.30
8.52

Batch lookup, pIC50 per entry.
1. CC(C)CN(CC(C)C)c1ccc(C(C)(C)C(=O)O)cc1NC(=O)Nc1ccc(F)cc1F
2. CC(C)C1COCCN1c1ncc(C2(C(=O)O)CCC2)cc1Nc1ccc(Cl)cc1 (stereo not shown)

[7.83, 8.03]

----------
Assign Human Hepatocyte Remaining Percentage @ 120 min to each entry below.
Tested on: pooled human hepatocytes
ASSAY_NAME: Human hepatocyte clearance study
Assay type: in vitro ADME
CONDITION_PARAMETERS: pooled human hepatocytes, 120 min
Method: The in vitro human hepatocyte clearance of compounds described here was studied using pooled human hepatocytes purchased from BioreclamationIVT (Westbury, NY, Cat #X008001, Lot #TQJ). The assay was conducted according to manufacture's instruction. […] Hepatocyte viability and density were counted using a Trypan Blue exclusion, and then cells were diluted with serum-free incubation medium to a working cell density of 0.5×10^6 viable cells/mL. […] Peak areas were determined from extracted ion chromatograms. […]
Give bare numbers.

Batch lookup, Human Hepatocyte Remaining Percentage @ 120 min per entry.
1. CCN(c1ncc(C2(C(=O)O)CCC2)cc1Nc1ccc(C#N)cc1)C1CCOCC1 [Compound 125]
2. CCN(c1ncc(C2(C(=O)O)CCC2)cc1Nc1ccc(Cl)cn1)C1CCOCC1 [Compound 123]
3. CCOc1ncc(Nc2cc(C3(C(=O)O)CCC3)ccc2N(CC)C2CCOCC2)cn1 [Compound 117]
4. CC(C)N(CC1CC1)c1ncc(C2(C(=O)O)CCC2)cc1Nc1ccc(C#N)cn1 [Compound 110]
5. CCN(c1ccc(C2(C(=O)O)CCC2)cc1Nc1ccc(Cl)cn1)C1CCOCC1 [Compound 115]

[97, 100, 93, 71, 83]

Batch lookup, Human Hepatocyte Remaining Percentage @ 120 min per entry.
1. CC(C)CN(CC(C)C)c1ccc(C2(C(=O)O)CCC2)cc1NC(=O)Nc1ccc(F)cc1F [Compound 16]
2. CC(C)CN(CC(C)C)c1ncc(C2(C(=O)O)CCC2)cc1Nc1ccc(Cl)cn1 [Compound 107]
3. CC(C)CN(c1ccc(C2(C(=O)O)CCC2)cc1NC(=O)Nc1ccc(F)cc1F)C1CCOCC1 [Compound 25]
4. CC(C)CN(CC(C)C)c1ncc(C2(C(=O)O)CCC2)cc1Nc1ccc(Cl)cc1 [Compound 84]

[101, 76, 89, 80]

----------
System: kynurenine production in HeLa cells
ASSAY_NAME: Inhibition of kynurenine production in HeLa cells
Assay type: cell-based, human
CONDITION_PARAMETERS: Homo sapiens, HeLa, 48 h, HeLa cells, human IFN-γ 50 ng/mL, kynurenine read at 480 nm, read-out: IC50
pIC50: −log10 of the molar value.
Each record gets a class by pIC50: low (below 8), medium (8 to below 9), high (9 or more)

Consider the following illustrative entries.
{"columns": ["COMPOUND", "CATEGORY_LABEL"],
 "data": [
  ["CC(C)CN(CC(C)C)c1ccc(C2(C(=O)O)CCCC2)cc1NC(=O)Nc1ccc(F)cc1F [Compound 9]", "medium"],
  ["CCOc1ncc(Nc2cc(C3(C(=O)O)CCC3)cnc2N(CC(C)C)C2CCOCC2)cn1 [Compound 122]", "medium"],
  ["Cc1cc(NC(=O)Nc2cc(C3(C(=O)O)CCC3)cnc2N(CC(C)C)CC(C)C)on1 [Compound 85]", "low"],
  ["CC(C)CN(c1ccc(C2(C(=O)O)CCC2)cc1Nc1ccc(C#N)cc1)C1CCOCC1 [Compound 72]", "high"]
]}

Please classify: CC(C)CN(c1ccc(C2(C(=O)O)CCC2)cc1NC(=O)C(C)C)C1CCOCC1 [Compound 50] low

Please classify: CC(C)CN(c1ncc(C2(C(=O)O)CCC2)cc1Nc1ccc(Cl)cc1)C1CCOCC1 [Compound 92] high

Please classify: CCOc1ncc(Nc2cc(C(C)(C)C(=O)O)ccc2N(CC(C)C)C2CCOCC2)cn1 [Compound 121] medium

Please classify: CC(C)CN(c1ccc(C2(C(=O)O)CCC2)cc1NCC1CC1)C1CCOCC1 [Compound 80] low

Please classify: CC(C)CN(CC(C)C)c1ccc(C2(C(=O)O)CCOCC2)cc1NC(=O)Nc1ccc(F)cc1F [Compound 8] low

Please classify: CCC(C(=O)O)c1ccc(N(CC(C)C)C2CCOCC2)c(Nc2ccc(Cl)cc2)c1 (centres unmarked) [Compound 68A] high

Please classify: CC(C)CN(c1ccc(C2(C(=O)O)CCC2)cc1Nc1ccc(C#N)cc1)C1CCCCC1 [Compound 56] high

Please classify: CC(C)CN(c1ccc(C2(C(=O)O)CCC2)cc1Nc1ccc(C#N)cn1)C1CCOCC1 [Compound 86] high

Please classify: CC(C)N(CC1CC1)c1ccc(C2(C(=O)O)CCC2)cc1Nc1ccc(C#N)cn1 [Compound 108] high

Please classify: CC(C)CN(c1ccc(C2(C(=O)O)CCC2)cc1Nc1ccc(C#N)cn1)C1CCCCC1 [Compound 94] high
